measured.on: mGluR5 receptor (Sus scrofa, UniProt I3LUI7)
Sequence (I3LUI7 19-1212): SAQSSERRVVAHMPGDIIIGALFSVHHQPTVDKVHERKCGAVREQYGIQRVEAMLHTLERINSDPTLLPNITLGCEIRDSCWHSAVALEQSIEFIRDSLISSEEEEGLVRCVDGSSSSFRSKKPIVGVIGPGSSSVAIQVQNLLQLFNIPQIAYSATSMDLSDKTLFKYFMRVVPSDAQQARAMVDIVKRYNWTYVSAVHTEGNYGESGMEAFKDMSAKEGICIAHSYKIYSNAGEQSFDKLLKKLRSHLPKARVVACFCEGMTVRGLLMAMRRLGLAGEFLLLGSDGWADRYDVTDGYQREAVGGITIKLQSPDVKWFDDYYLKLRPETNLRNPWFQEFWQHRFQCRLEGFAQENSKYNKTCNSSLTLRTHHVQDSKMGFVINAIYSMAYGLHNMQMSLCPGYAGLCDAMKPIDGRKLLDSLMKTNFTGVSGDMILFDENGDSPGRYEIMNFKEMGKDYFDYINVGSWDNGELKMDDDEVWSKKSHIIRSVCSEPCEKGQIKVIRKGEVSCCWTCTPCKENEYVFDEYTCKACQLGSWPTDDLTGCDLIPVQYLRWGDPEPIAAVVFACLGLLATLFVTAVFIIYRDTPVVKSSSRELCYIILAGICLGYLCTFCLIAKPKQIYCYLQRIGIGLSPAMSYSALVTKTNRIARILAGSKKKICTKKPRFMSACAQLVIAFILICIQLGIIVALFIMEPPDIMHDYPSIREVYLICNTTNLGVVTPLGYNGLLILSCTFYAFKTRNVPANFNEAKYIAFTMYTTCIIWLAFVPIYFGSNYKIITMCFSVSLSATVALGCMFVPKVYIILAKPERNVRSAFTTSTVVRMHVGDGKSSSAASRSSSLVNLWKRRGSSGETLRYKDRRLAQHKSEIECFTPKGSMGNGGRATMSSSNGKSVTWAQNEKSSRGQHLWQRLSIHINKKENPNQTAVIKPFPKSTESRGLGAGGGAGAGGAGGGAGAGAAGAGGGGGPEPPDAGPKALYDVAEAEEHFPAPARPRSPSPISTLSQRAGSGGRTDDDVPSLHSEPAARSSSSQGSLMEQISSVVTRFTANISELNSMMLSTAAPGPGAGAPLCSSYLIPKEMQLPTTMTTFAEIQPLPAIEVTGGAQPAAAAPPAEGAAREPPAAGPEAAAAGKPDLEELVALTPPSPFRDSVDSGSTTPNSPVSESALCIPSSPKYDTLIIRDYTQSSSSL
Where a name gives a salt, the structure may show the parent alone.
measurement.type: IC50 (nM)

compound: CC(C)(C)Nc1c(-c2ccc(C#Cc3cccc(CO)c3)s2)nc2ccccn12 [Example 341, hydrochloride]
result.number: 240

compound: CC(C)(C)Nc1c(-c2ccc(C#Cc3ccncc3)s2)nc2cnccn12.Cl [Example 127, hydrochloride]
result.number: 8.4

compound: CC(C)(C)Nc1c(-c2ccc(C#Cc3cccs3)s2)nc2ccccn12 [Example 343, hydrochloride]
result.number: 93

compound: COc1ccccc1C#Cc1ccc(-c2nc3cnccn3c2NC(C)(C)C)s1 [Example 112, hydrochloride]
result.number: 7520

compound: Cc1ccccc1C#Cc1ccc(-c2nc3cnccn3c2NC(C)(C)C)s1 [Example 162, hydrochloride]
result.number: 4240

(I) CC(=O)c1cccc(C#Cc2ccc(-c3nc4ccccn4c3NC(C)(C)C)s2)c1 [Example 340, hydrochloride]
(II) CC(C)(C)Nc1c(-c2ccc(C#Cc3cccc(F)n3)s2)nc2cnccn12 [Example 165]
Compare I and II by numeric IC50 and name the larger one. Choose, then provide that item's label.
I
(I: 620 nM, II: 18 nM)

====

measured.on: mGluR5 receptor (Sus scrofa, UniProt I3LUI7)
protocol.notes: Affinity for the mGluR5 receptor: inhibition of 3[H]-MPEP binding in pig brain homogenate
cond: 10 μM compound, 5 nM 3[H]-MPEP, read-out: mGluR5 receptor inhibition of ^3[H]-MPEP binding [10 μM] in % at a concentration of the example compounds of 10 μM
measurement.type: inhibition at 10 µM (%)

(P) CC(C)c1ccn2c(NC(C)(C)CC(C)(C)C)c(-c3ccc(C#Cc4ccccn4)s3)nc2c1 [Example 305]
(Q) COc1ccccc1CNc1c(-c2ccc(C#Cc3ccccc3)o2)nc2cnccn12 [Example 207]
(R) CCc1ccn2c(NC3CCCCC3)c(-c3cccc(C#Cc4ccccn4)c3)nc2c1 [Example 300]
List from greatest to least inhibition at 10 µM. Sort and list the labels as requested.
P, R, Q

====

measured.on: mGluR5 receptor (Sus scrofa)
protocol.notes: Affinity for the mGluR5 receptor: inhibition of 3[H]-MPEP binding in pig brain homogenate
cond: 10 μM compound, 5 nM 3[H]-MPEP, read-out: mGluR5 receptor inhibition of ^3[H]-MPEP binding [10 μM] in % at a concentration of the example compounds of 10 μM
measurement.type: inhibition at 10 µM (%)

Some entries whose results are on file:
chemical.smiles: Cc1ccc2nc(-c3ccc(C#Cc4ccccn4)o3)c(NC3CCCC3)n2c1
result.number: 72
--
chemical.smiles: Cc1cc(Br)cn2c(NCCc3ccc(Cl)cc3)c(-c3cc(C#Cc4ccccc4)cs3)nc12
result.number: 61
--
chemical.smiles: CCc1ccn2c(NC3CCCC3)c(-c3ccc(C#Cc4ccccn4)cc3)nc2c1
result.number: 78
--
chemical.smiles: Cc1cc(C)n2c(NC3CCCC3)c(-c3ccc(C#Cc4ccccn4)o3)nc2n1
result.number: 79
--
chemical.smiles: COc1cccc(CNc2c(-c3ccc(C#Cc4ccccc4)s3)nc3c(C)cccn23)c1
result.number: 84

(a) Cc1cccn2c(NCC3CCCCC3)c(-c3ccc(C#Cc4ccccc4)s3)nc12
(b) Cc1ccc2nc(-c3ccc(C#Cc4ccccc4)nc3C)c(NC(C)(C)CC(C)(C)C)n2c1
Given the listed items, does a or b have the lesser reported inhibition at 10 µM? Lab log: write the label of the selected item as the result.
b

====

measured.on: mGluR5 receptor (Sus scrofa)
protocol.notes: Affinity for the mGluR5 receptor: inhibition of 3[H]-MPEP binding in pig brain homogenate
cond: 10 μM compound, 5 nM 3[H]-MPEP, read-out: mGluR5 receptor inhibition of ^3[H]-MPEP binding [10 μM] in % at a concentration of the example compounds of 10 μM
measurement.type: inhibition at 10 µM (%)

Solved entries:
molecule: CCCC(C)(C)Nc1c(-c2cc(C#Cc3ccccc3)cs2)nc2c(OCc3ccccc3)cccn12 [Example 220]
inhibition at 10 µM [%]: 31

molecule: Cc1ccn2c(NC(C)(C)C)c(-c3cccc(C#Cc4ccccn4)c3)nc2c1 [Example 276]
inhibition at 10 µM [%]: 93

molecule: Cc1cc(C)n2c(NC(C)(C)C)c(-c3ccc(C#Cc4ccccn4)o3)nc2n1 [Example 295]
inhibition at 10 µM [%]: 84

molecule: Cc1cccc(C#Cc2cccc(-c3nc4ccccn4c3NC3CCCCC3)c2)n1 [Example 288]
inhibition at 10 µM [%]: 89

molecule: C(#Cc1ccc(-c2nc3ccccn3c2NC2CCCCC2)cn1)c1ccccc1 [Example 283]
inhibition at 10 µM [%]: 82

(I) Cc1ccc2nc(-c3cccc(C#Cc4cccc(C)n4)c3)c(NC3CCCCC3)n2c1 [Example 273]
(II) CCCc1ccn2c(Nc3ccco3)c(-c3ccc(C#Cc4ccccc4)o3)nc2c1 [Example 225]
Identify the entry with the larger inhibition at 10 µM. Options: I and II Let me know the label of the one you choose.
I

====

Counter-ions that a name gives are not always drawn.
Record set of IC50 for target or system mGluR5 receptor (Sus scrofa, UniProt I3LUI7).
measurement.type: IC50 (nM)

Examples with answers:
compound: CC(C)(C)Nc1c(-c2ccc(C#Cc3cccc([N+](=O)[O-])c3)s2)nc2cnccn12 [Example 150, hydrochloride]
measurement.type: IC50
units: nM
result.number: 110

compound: Cc1ccc(C#Cc2ccc(-c3nc4cnccn4c3NC(C)(C)C)s2)s1 [Example 135, hydrochloride]
measurement.type: IC50
units: nM
result.number: 1200

compound: CC(C)(C)Nc1c(-c2ccc(C#Cc3ccccc3)s2)nc2c(C(=O)O)nccn12
measurement.type: IC50
units: nM
result.number: 3630

compound: CN(c1c(-c2ccc(C#Cc3ccccc3)s2)nc2cnccn12)C(C)(C)CC(C)(C)C [Example 98, hydrochloride]
measurement.type: IC50
units: nM
result.number: 250

(P) CC(C)(C)Nc1c(-c2ccc(C#Cc3nccs3)s2)nc2cnccn12
(Q) CNc1cccc(C#Cc2ccc(-c3nc4cnccn4c3NC(C)(C)C)s2)c1 [Example 160, hydrochloride]
(R) CC(C)(C)Nc1c(-c2ccc(C#Cc3ccccc3[N+](=O)[O-])s2)nc2cnccn12
Let's sort these by IC50, smallest first. Go ahead? Write the labels out in the order the request specifies.
P, Q, R
(P: 15 nM, Q: 94 nM, R: 11300 nM)

====

measured.on: mGluR5 receptor (Sus scrofa)
protocol.notes: Affinity for the mGluR5 receptor: inhibition of 3[H]-MPEP binding in pig brain homogenate
cond: 10 μM compound, 5 nM 3[H]-MPEP, read-out: mGluR5 receptor inhibition of ^3[H]-MPEP binding [10 μM] in % at a concentration of the example compounds of 10 μM
Counter-ions that a name gives are not always drawn.
measurement.type: inhibition at 10 µM (%)

compound: CC(C)(C)Nc1c(-c2ccc(C#Cc3ccc(Cl)s3)s2)nc2ccccn12 [Example 338, hydrochloride]
measurement.type: inhibition at 10 µM
units: %
result.number: 52
//
compound: C(#Cc1ccc(-c2nc3cnccn3c2N(Cc2cccnc2)Cc2cccnc2)s1)c1ccccc1 [Example 79]
measurement.type: inhibition at 10 µM
units: %
result.number: 35
//
compound: Cc1cc(C)n2c(Nc3cccc(C(F)(F)F)c3)c(-c3cc(C#Cc4ccccc4)cs3)nc2n1 [Example 226]
measurement.type: inhibition at 10 µM
units: %
result.number: 41
//
compound: C(#Cc1ccc(-c2nc3cnccn3c2NC2CCCC2)o1)c1ccccn1 [Example 245]
measurement.type: inhibition at 10 µM
units: %
result.number: 92
//
compound: Cc1cc(Br)c2nc(-c3ccc(C#Cc4ccccn4)o3)c(NC3CCCC3)n2c1 [Example 246]
measurement.type: inhibition at 10 µM
units: %
result.number: 74

(I) CC(C)(C)CC(C)(C)Nc1c(-c2ccc(C#Cc3ccccc3)s2)nc2cnccn12 [Example 56]
(II) CC(C)(C)CC(C)(C)Nc1c(-c2cccc(C#Cc3ccccn3)c2)nc2cnccn12 [Example 239]
Of the two listed items, I and II , which carries the larger inhibition at 10 µM figure? Identify your pick by its label.
I

====

measured.on: mGluR5 receptor (Sus scrofa, UniProt I3LUI7)
protocol.notes: Affinity for the mGluR5 receptor: inhibition of 3[H]-MPEP binding in pig brain homogenate
cond: 10 μM compound, 5 nM 3[H]-MPEP, read-out: mGluR5 receptor inhibition of ^3[H]-MPEP binding [10 μM] in % at a concentration of the example compounds of 10 μM
measurement.type: inhibition at 10 µM (%)

Example cases with answers are listed next.
compound: Cc1cccn2c(NC3CCCCC3)c(-c3ccc(C#Cc4ccccn4)cc3)nc12 [Example 297]
inhibition at 10 µM, %: 80
--
compound: CC(C)(C)CC(C)(C)Nc1c(-c2ccc(C#Cc3ccccn3)o2)nc2ccc(Cl)cn12 [Example 318]
inhibition at 10 µM, %: 43

(A) Cc1cccc(C#Cc2cccc(-c3nc4cc(C(C)C)ccn4c3NC(C)(C)C)c2)n1 [Example 309]
(B) Clc1ccc(CNc2c(-c3ccc(C#Cc4ccccc4)s3)nc3ccccn23)cc1 [Example 204]
// compare measured inhibition at 10 µM between A and B ; output the lower one Use the label to indicate which entry you chose.
B

Values compiled from patent US7420056B2.
